Target: recombinant purified human IL-12 p70 (human) (UniProt P29459)
Sequence (chain, as listed by the source, form in doubt, chain 1 of 2): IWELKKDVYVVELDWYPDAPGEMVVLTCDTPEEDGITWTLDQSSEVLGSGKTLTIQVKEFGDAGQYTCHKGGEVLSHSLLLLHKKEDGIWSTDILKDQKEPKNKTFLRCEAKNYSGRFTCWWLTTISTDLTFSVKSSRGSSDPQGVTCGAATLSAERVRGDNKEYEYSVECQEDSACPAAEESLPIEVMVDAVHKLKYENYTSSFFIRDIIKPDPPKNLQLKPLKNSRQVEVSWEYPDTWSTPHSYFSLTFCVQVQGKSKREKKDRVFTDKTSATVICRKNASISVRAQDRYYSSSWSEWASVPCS
Sequence (P29459 23-219, form in doubt, chain 2 of 2): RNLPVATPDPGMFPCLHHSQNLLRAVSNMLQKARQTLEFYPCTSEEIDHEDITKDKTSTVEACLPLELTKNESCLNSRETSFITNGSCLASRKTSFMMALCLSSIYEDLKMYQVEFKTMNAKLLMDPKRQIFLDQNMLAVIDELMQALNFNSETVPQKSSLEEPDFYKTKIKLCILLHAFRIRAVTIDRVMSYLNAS
Assay: SPR (Biacore) per Example 1.1.B; antigen not restated, taken as human IL-12 p70
assay_readout: Kd (nM)

{"columns": ["binder", "numeric_result"],
 "data": [
  ["1A6.12 (antibody, IgG1, V domains shown) VH: EVTLRESGPGLVKPTQTLTLTCTLYGFSLSTSGMGVSWIRQPPGKGLEWLAHIWWDGDNYYNPSLKSQLTISKDTSKNQVVLKLTSVDPVDTATYYCARRTRVNYAMDYWGQGTLVTVSS VL: DIQMTQSPSSLSASVGDRVTITCKASQSVSNDVAWFQQKPGKAPKLLIYYASNRYTGVPDRFSGSGYGTDFTFTISSLQPEDIATYYCQQDYNSPWTFGGGTKVEIKR", 0.4],
  ["8E1.6 (antibody, V domains shown) VH: EVQLVESGGGLVQPGGSLRLSCAASGFTFSDYGMVWVRQAPGKGLEWVASISSGSSNIYYADTVKGRFTISRDDAKNTLYLQMNSLRAEDTAVYYCARNPYWGQGTLVTVSS VL: DIQMTQSPSSLSASVGDRVTITCKASQNVGTNVAWYQQKPGKAPKGLIYSASHRYSGVPSRFSGSGSGTDFTLTISSLQPEDFATYYCQQYNSYPLTFGGGTKVEIKR", 0.046],
  ["1A6.10 (antibody, V domains shown) VH: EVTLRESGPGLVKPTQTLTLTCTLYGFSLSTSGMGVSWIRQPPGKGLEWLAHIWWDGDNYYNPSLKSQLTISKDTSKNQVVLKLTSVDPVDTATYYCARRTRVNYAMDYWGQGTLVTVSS VL: DIQMTQSPSSLSASVGDRVTITCKASQSVSNDVAWYQQKPGKAPKLLIYYASNRYTGVPDRFSGSGYGTDFTFTISSLQPEDIATYYCQQDYNSPWTFGGGTKVEIKR", 0.024]
]}
